# System: TTR
# Measurement notes: TTR editing in primary human hepatocytes electroporated with Spy Cas9 protein loaded with dgRNAs (Table 7)
# Assay type: cell-based
# Assay setup: dgRNA electroporated with Spy Cas9 protein (RNP)
Avg % Edit reference
State the value, then name its unit.

| Sequence code | Avg % Edit |
| --- | --- |
| AAAUAGACACCAAAUCUUAC (tested as dual guide RNA, chemistry not given here) [CR003366] | 34.70% |
| UAUAGGAAAACCAGUGAGUC (tested as dual guide RNA, chemistry not given here) [CR005305] | 3.83% |
| UACUCACCUCUGCAUGCUCA (tested as dual guide RNA, chemistry not given here) [CR003372] | 12.17% |

Alright, here's another sequence for you.
Requested field: Avg % Edit. Item: UGGACUGGUAUUUGUGUCUG (tested as dual guide RNA, chemistry not given here) [CR003340]
12.03%

----------
# Tested on: TTR
# Measurement notes: TTR editing in primary human hepatocytes transfected with Spy Cas9 protein (RNP) loaded with dgRNAs (Table 8)
# Assay type: cell-based
# Assay setup: dgRNA transfected with Spy Cas9 protein (RNP)
Entries and their Avg % Insert values follow.
The reply should contain only the number, in %.

Here are 5 sequences together with their reported answers.
| Sequence code | Avg % Insert (%) |
| --- | --- |
| CUGGUAUUUGUGUCUGAGGC (tested as dual guide RNA, chemistry not given here) [CR003341] | 14.64 |
| GGGAUUGGUGACGACAGCCG (tested as dual guide RNA, chemistry not given here) [CR003390] | 15.85 |
| CCCCUACUCCUAUUCCACCA (tested as dual guide RNA, chemistry not given here) [CR003385] | 38.15 |
| UCACAGAAACACUCACCGUA (tested as dual guide RNA, chemistry not given here) [CR005300] | 53.62 |
| GGAGUAGGGGCUCAGCAGGG (tested as dual guide RNA, chemistry not given here) [CR003382] | 2.28 |

Pending sequence:
Any idea what Avg % Insert was measured for GGCGGCAAUGGUGUAGCGGC (tested as dual guide RNA, chemistry not given here) [CR003378] ?
8.24

----------
# Test system: TTR
# Measurement notes: TTR editing in HepG2 cells transfected with Spy Cas9 mRNA and dgRNAs (Table 6)
# Type: cell-based, human
# Assay setup: HepG2 cells co-transfected with Spy Cas9 mRNA (SEQ ID NO:2) and dgRNAs
Kind request: treat 30% as inclusive, so Avg % Edit at 30% or higher is T, anything lower is F.

| Sequence code | Class assignment |
| --- | --- |
| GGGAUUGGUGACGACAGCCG (tested as dual guide RNA, chemistry not given here) [CR003390] | F |
| UGUCUGUCUUCUCUCAUAGG (tested as dual guide RNA, chemistry not given here) [CR005307] | F |
| GGGCGGCAAUGGUGUAGCGG (tested as dual guide RNA, chemistry not given here) [CR003379] | F |
| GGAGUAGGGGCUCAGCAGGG (tested as dual guide RNA, chemistry not given here) [CR003382] | F |
| CCUCCUCUGCCUUGCUGGAC (tested as dual guide RNA, chemistry not given here) [CR003336] | T |

Determine whether this sequence has Avg % Edit no lower than 30%: AGACACCAAAUCUUACUGGA (tested as dual guide RNA, chemistry not given here) [CR003367]
T

Item ACGUGUCUUCUCUACACCCA (tested as dual guide RNA, chemistry not given here) [CR005302] with Avg % Edit of 30% or above?
T

Answer whether Avg % Edit of CCAGUCCAGCAAGGCAGAGG (tested as dual guide RNA, chemistry not given here) [CR003337] is greater than or equal to 30%.
T

Hi team, for GCAGGGCGGCAAUGGUGUAG (tested as dual guide RNA, chemistry not given here) [CR003380] , is the recorded Avg % Edit at or above 30%?
F

Can CAUUGAUGGCAGGACUGCCU (tested as dual guide RNA, chemistry not given here) [CR003347] be said to have Avg % Edit at or above 30%?
F

Reported Avg % Edit reaches at least 30% for GAAAGGCUGCUGAUGACACC (tested as dual guide RNA, chemistry not given here) [CR003352] ?
T

----------
# Test system: TTR
# Measurement notes: TTR editing in HEK293_Cas9 cells transfected with dgRNAs (Table 4)
# Type: cell-based, human
# Assay setup: HEK293_Cas9 cells (constitutively express Spy Cas9) transfected with dgRNAs
Result type: Avg % Edit (%)
// return numeric value only (unit: %, not printed)

Example entries begin here.
| Sequence code | Unit abbrev | Avg % Edit |
| --- | --- | --- |
| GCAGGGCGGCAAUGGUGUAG (tested as dual guide RNA, chemistry not given here) [CR003380] | % | 47.64 |
| GGCUGUCGUCACCAAUCCCA (tested as dual guide RNA, chemistry not given here) [CR003391] | % | 44.81 |
| ACACAAAUACCAGUCCAGCA (tested as dual guide RNA, chemistry not given here) [CR003339] | % | 56.37 |

Report Avg % Edit for AUACCAGUCCAGCAAGGCAG (tested as dual guide RNA, chemistry not given here) [CR003338] please.
52.42

Give the measured Avg % Edit of AAUGGUGUAGCGGCGGGGGC (tested as dual guide RNA, chemistry not given here) [CR003375] .
11.63

Param item = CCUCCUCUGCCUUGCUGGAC (tested as dual guide RNA, chemistry not given here) [CR003336] ; retrieve measured Avg % Edit.
29.09

I am curious: what Avg % Edit value has been reported for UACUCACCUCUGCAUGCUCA (tested as dual guide RNA, chemistry not given here) [CR003372] ?
15.24

// lookup Avg % Edit for GUAUUCACAGCCAACGACUC (tested as dual guide RNA, chemistry not given here) [CR003373]
13.55

----------
The following sequences are shown together with reported Avg % Insert values.
# System: TTR
# Measurement notes: TTR editing in primary cyno hepatocytes electroporated with Spy Cas9 protein and dgRNAs (Tables 10, 11)
# Type: cell-based, cynomolgus monkey
# Assay setup: Table 10; primary cyno hepatocytes electroporated with Spy Cas9 protein (RNP) and dgRNAs
# Description: Primary liver hepatocytes. Primary human liver hepatocytes (PHH) and primary cynomolgus liver hepatocytes (PCH) (Gibco) were cultured per the manufacturer's protocol (Invitrogen, protocol 11.28.2012). […] Cells were counted and plated on Bio-coat collagen I coated 96-well plates (ThermoFisher, Cat. 877272) at a density of 33,000 cells/well for human or 60,000 cells/well for cyno (or 65,000 cells/well when assaying effects on TTR protein, described further below). […]
Just the number in %, nothing appended.

Consider the reported Avg % Insert for these sequences:
| Sequence code | Avg % Insert (%) |
| --- | --- |
| GACGACAGCCGUGGUGGAAU (tested as dual guide RNA, chemistry not given here) [CR003388] | 6.59 |
| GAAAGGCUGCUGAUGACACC (tested as dual guide RNA, chemistry not given here) [CR003352] | 1.16 |
| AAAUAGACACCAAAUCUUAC (tested as dual guide RNA, chemistry not given here) [CR003366] | 17.62 |
| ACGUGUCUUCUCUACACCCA (tested as dual guide RNA, chemistry not given here) [CR005302] | 1.26 |
| CUGAGGAGGAAUUUGUAGAA (tested as dual guide RNA, chemistry not given here) [CR003364] | 14.27 |

# context switch: different sequence, same Avg % Insert
Form entry - test system: TTR; read-out: Avg % Insert; sequence: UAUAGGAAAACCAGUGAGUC (tested as dual guide RNA, chemistry not given here) [CR005305]
11.13

----------
# Test system: off-target genomic sites
# Measurement notes: Off-target oligo insertion based assay in HEK293_Cas9 cells, dgRNAs and sgRNAs (Tables 23, 24)
# Type: cell-based, human
# Assay setup: Table 23; TTR dgRNAs in HekCas9 cells, oligo insertion based assay
Recorded # Sites (off-target integration sites detected) for the following sequences

| Sequence code | Result |
| --- | --- |
| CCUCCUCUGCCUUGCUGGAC (tested as dual guide RNA, chemistry not given here) [CR003336] | 2 |
| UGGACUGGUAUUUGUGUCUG (tested as dual guide RNA, chemistry not given here) [CR003340] | 0 |
| UUUGACCAUCAGAGGACACU (tested as dual guide RNA, chemistry not given here) [CR003344] | 0 |
| AUUGGUGACGACAGCCGUGG (tested as dual guide RNA, chemistry not given here) [CR003389] | 2 |

Reported # Sites (off-target integration sites detected) for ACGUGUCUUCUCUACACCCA (tested as dual guide RNA, chemistry not given here) [CR005302] : what is it?
1

Can you share its # Sites (off-target integration sites detected)? I mean this sequence: ACUGAGGAGGAAUUUGUAGA (tested as dual guide RNA, chemistry not given here) [CR003363]
4

# Sites (off-target integration sites detected) lookup needed for GUCACAGAAACACUCACCGU (tested as dual guide RNA, chemistry not given here) [CR005301] , thanks.
0

Fill blank: measured # Sites (off-target integration sites detected) of the sequence AGUGAGUCUGGAGAGCUGCA (tested as dual guide RNA, chemistry not given here) [CR003359] is ____.
6
